Molecular target: PHD1 (EGLN2) (Homo sapiens (Human), UniProt Q96KS0)
Sequence (Q96KS0 whole entry): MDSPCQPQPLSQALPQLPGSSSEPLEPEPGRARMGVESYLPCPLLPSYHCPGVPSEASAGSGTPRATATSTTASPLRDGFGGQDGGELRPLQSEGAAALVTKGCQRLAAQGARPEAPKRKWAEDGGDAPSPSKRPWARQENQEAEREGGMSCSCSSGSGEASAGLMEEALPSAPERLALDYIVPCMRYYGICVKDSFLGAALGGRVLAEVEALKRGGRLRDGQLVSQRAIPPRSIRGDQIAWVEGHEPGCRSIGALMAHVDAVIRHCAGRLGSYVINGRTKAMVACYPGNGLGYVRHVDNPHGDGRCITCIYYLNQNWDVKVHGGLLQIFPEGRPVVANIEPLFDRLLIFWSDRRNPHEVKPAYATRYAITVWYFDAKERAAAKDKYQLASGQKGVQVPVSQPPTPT
Assay: HIF-PH assay (14CO2 capture), PHD1 enzyme inhibition
Type: biochemical
Conditions: Table 1; individual measurement; read-out: IC50 (μM) PHD1
Measured IC50 values are reported for all entries that follow.
Form entry: value (µM) — number only.

Answered examples (3):
O=C(O)CCCNC(=O)c1ncc2cc(Sc3ccccc3)ccc2c1O [Compound 115] ... 1.41
O=C(O)CCCNC(=O)c1ncc2cc(NC(=O)Nc3ccc(F)cc3)ccc2c1O [Compound 142] ... 4.12
COc1ccc(Oc2ccc3c(O)c(C(=O)NCCCCC(=O)O)ncc3c2)cc1 [Compound 105] ... 2.3

Q: Quote IC50 with test system PHD1 (EGLN2) (Homo sapiens (Human), UniProt Q96KS0) for CCC(CNC(=O)c1nc(C#N)c2cc(Oc3ccccc3)ccc2c1O)C(=O)O (centres unmarked) [Compound 57]
Result: 0.54

Q: Provide PHD1 (EGLN2) (Homo sapiens (Human), UniProt Q96KS0) IC50 reading for O=C(NC[C@H](O)C(=O)O)c1ncc2cc(Oc3ccccc3)ccc2c1O [Compound 3] .
Result: 1.08

Q: Tell me IC50 of Cc1cccc(C)c1Oc1ccc2c(C#N)nc(C(=O)NCCCC(=O)O)c(O)c2c1 [Compound 110] when tested on PHD1 (EGLN2) (Homo sapiens (Human), UniProt Q96KS0).
Result: 3.63

Q: Report value: IC50, system: PHD1 (EGLN2) (Homo sapiens (Human), UniProt Q96KS0), molecule: N#Cc1nc(C(=O)N[C@@H](CC(=O)O)c2cccnc2)c(O)c2ccc(Oc3ccccc3)cc12 [Compound 175]
Result: 4.51

Q: Quote IC50 with test system PHD1 (EGLN2) (Homo sapiens (Human), UniProt Q96KS0) for CC(C)(CC(=O)O)NC(=O)c1nc(C#N)c2cc(Oc3ccc(F)cc3)ccc2c1O [Compound 102]
Result: 0.53

###

Items are presented alongside their recorded IC50.
Target: PHD2 (EGLN1) (Homo sapiens (Human), UniProt Q9GZT9)
Sequence (Q9GZT9 whole entry): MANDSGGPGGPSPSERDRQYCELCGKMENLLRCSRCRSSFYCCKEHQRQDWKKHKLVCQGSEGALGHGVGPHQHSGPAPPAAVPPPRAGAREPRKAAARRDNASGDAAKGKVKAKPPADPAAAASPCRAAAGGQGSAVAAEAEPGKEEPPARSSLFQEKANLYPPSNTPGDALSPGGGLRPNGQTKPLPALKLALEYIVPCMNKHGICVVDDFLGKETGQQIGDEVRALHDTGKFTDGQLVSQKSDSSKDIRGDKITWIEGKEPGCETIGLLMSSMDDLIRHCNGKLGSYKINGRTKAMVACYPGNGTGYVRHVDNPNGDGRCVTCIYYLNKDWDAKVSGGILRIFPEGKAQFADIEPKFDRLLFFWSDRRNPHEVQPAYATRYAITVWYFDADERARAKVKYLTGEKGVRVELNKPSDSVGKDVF
Experiment: HIF-PH assay (14CO2 capture), PHD2 enzyme inhibition
Assay type: biochemical
Conditions: Table 1; individual measurement; read-out: IC50 (μM) PHD2

Observe how each entry below is paired with its result.
N#Cc1nc(C(=O)NCC2(C(=O)O)CCC2)c(O)c2ccc(S(=O)(=O)C3CCCCC3)cc12 ... 200 µM
O=C(O)CCNC(=O)c1ncc2cc(NC(=O)NCc3ccccc3)ccc2c1O ... 6.06 µM

Q: Give the measured IC50 for `C[C@H](CC(=O)O)NC(=O)c1nc(C#N)c2cc(Oc3ccccc3)ccc2c1O`
Result: 12.6 µM

Q: Give reported IC50 value for `Cc1nc(C(=O)NCCC(=O)O)c(O)c2ccc(Oc3ccccc3)cc12`
Result: 200 µM

Q: Give IC50 for the following compound: `CC(C)(CNC(=O)c1nc(C#N)c2cc(Oc3c(F)cccc3F)ccc2c1O)C(=O)O`
Result: 15.1 µM

Q: Give the reported IC50 for this compound. `C[C@@H](CC(=O)O)NC(=O)c1nc(C#N)c2cc(Oc3ccccc3)ccc2c1O`
Result: 96.8 µM

Q: Give me measured IC50, please, for this compound: `N#Cc1nc(C(=O)NC[C@H](Cc2ccccc2)C(=O)O)c(O)c2ccc(Oc3ccccc3)cc12`
Result: 23.9 µM

Q: Supply reported IC50 belonging to this compound: `CC(C)(CNC(=O)c1nc(C#N)c2cc(NC(=O)c3ccc(F)cc3)ccc2c1O)C(=O)O`
Result: 200 µM

###

Target: PHD1 (EGLN2) (Homo sapiens (Human), UniProt Q96KS0)
Test: HIF-PH assay (14CO2 capture), PHD1 enzyme inhibition
Type: biochemical
Details: Table 1; individual measurement; read-out: IC50 (μM) PHD1
attributeMeasured: log10(IC50) (log10 of the value in µM)
In our notation, the value equals log10 of IC50 in µM.

Worked cases, log10(IC50) given:
COc1ccc(Oc2ccc3c(O)c(C(=O)NCC(C)(C)C(=O)O)nc(C#N)c3c2)cc1 ... -0.46
CC(C)(CCNC(=O)c1ncc2cc(Oc3ccccc3)ccc2c1O)C(=O)O ... 1.06
CC(C)(CNC(=O)c1nc(C#N)c2cc(Oc3ccc4ccccc4c3)ccc2c1O)C(=O)O ... -0.89
N#Cc1nc(C(=O)NCCCCC(=O)O)c(O)c2cc(Oc3ccccc3)ccc12 ... 0.95
CC(C)(CNC(=O)c1c(O)c2ccc(Oc3ccccc3)cc2c(C#N)[n+]1[O-])C(=O)O ... 1.13
CC(=O)N[C@H](CCNC(=O)c1nc(C#N)c2cc(Oc3ccccc3)ccc2c1O)C(=O)O ... -0.55
N#Cc1nc(C(=O)NCC2(C(=O)O)CCCC2)c(O)c2ccc(Oc3ccccc3)cc12 ... 0.24

Pending molecule:
Q: Return log10(IC50) for the following molecule: `COc1ccc(CNc2ccc3c(O)c(C(=O)NCCCCC(=O)O)ncc3c2)cc1`
Result: 0.90

###

Molecular target: PHD2 (EGLN1) (Homo sapiens (Human), UniProt Q9GZT9)
Assay: HIF-PH assay (14CO2 capture), PHD2 enzyme inhibition
Format: biochemical
Conditions: Table 1; individual measurement; read-out: IC50 (μM) PHD2
# strict inequality: IC50 < 30 µM yields true (1), everything else yields false (0)

Examples with answers:
O=C(O)CCCNC(=O)c1ncc2cc(NC(=O)c3ccc(F)cc3)ccc2c1O ... false (0)
O=C(NCC1(C(=O)O)CCC1)c1ncc2cc(Oc3ccccc3)ccc2c1O ... false (0)
C[C@H](CNC(=O)c1nc(C#N)c2cc(Oc3ccccc3)ccc2c1O)C(=O)O ... true (1)
C[C@H](NC(=O)c1nc(C#N)c2cc(Oc3ccccc3)ccc2c1O)[C@@H](C)C(=O)O ... false (0)
CC(C)(CNC(=O)c1ncc2cc(-c3ccccc3)ccc2c1O)C(=O)O ... false (0)

Q: Strictly below 30 µM: is that where IC50 of `CC(C)(CNC(=O)c1ncc2cc(Oc3ccc(Cl)c(F)c3)ccc2c1O)C(=O)O` sits?
Result: true (1)

###

Molecular target: PHD1 (EGLN2) (Homo sapiens (Human), UniProt Q96KS0)
Test: HIF-PH assay (14CO2 capture), PHD1 enzyme inhibition
Type: biochemical
Conditions: Table 1; ratio of the IC50 of the compound for each enzyme
The entries below come with measured PHD2/PHD1 values attached.
The answer should be a number; do not append a unit.

Q: Given the compound CC(CC(=O)O)NC(=O)c1nc(C#N)c2cc(Oc3ccccc3)ccc2c1O (centres unmarked) , write its reported PHD2/PHD1.
Result: 41

Q: Fill in PHD2/PHD1 for record `O=C(O)CCCCNC(=O)c1ncc2cc(-c3ccc(F)cc3)ccc2c1O`
Result: 5

Q: Kindly indicate its recorded PHD2/PHD1. Item: `CN(C)C(=O)N[C@H](CCNC(=O)c1nc(C#N)c2cc(Oc3ccccc3)ccc2c1O)C(=O)O`
Result: 6.1

Q: Return value of PHD2/PHD1 for input `N#Cc1nc(C(=O)NC[C@H](O)C(=O)O)c(O)c2ccc(Oc3ccccc3)cc12` , no commentary.
Result: 15

Q: Return the recorded PHD2/PHD1 value; entry: `CC(C)(CNC(=O)c1ncc2cc(Oc3ccccc3)ccc2c1O)C(=O)O`
Result: 8

Q: Output PHD2/PHD1 of CCC(C)(CNC(=O)c1nc(C#N)c2cc(Oc3ccccc3)ccc2c1O)C(=O)O (centres unmarked)
Result: 11

Q: Look up and report measured PHD2/PHD1 for this entry: `CC[C@H](CC(=O)O)NC(=O)c1nc(C#N)c2cc(Oc3ccccc3)ccc2c1O`
Result: 10

Q: For the compound O=C(NCC(C(=O)O)c1ccccc1)c1ncc2cc(Oc3ccccc3)ccc2c1O (centres unmarked) , give its measured PHD2/PHD1 value.
Result: 6

Q: Entry `N#Cc1nc(C(=O)NCC2(C(=O)O)CCC2)c(O)c2ccc(S(=O)(=O)C3CCCCC3)cc12` needs its PHD2/PHD1 filled in; supply it.
Result: 10

###

Target: UniProt:Q96KS0
Assay: HIF-PH assay (14CO2 capture), PHD1 enzyme inhibition
Assay type: biochemical
Conditions: Table 2 comparative data; IC50 PHD2/IC50 PHD1
Decide using PHD2/PHD1: a value greater than or equal to 10 is Yes, a smaller one is No.

N#Cc1nc(C(=O)NCC(=O)O)c(O)c2ccc(Oc3ccccc3)cc12 [U.S. Pat. No. 7,928,120; Example 3, reference compound] ... No
CC(CC(=O)O)NC(=O)c1nc(C#N)c2cc(Oc3ccccc3)ccc2c1O (stereo not drawn) ... Yes
O=C(O)CCNC(=O)c1ncc2cc(Oc3ccccc3)ccc2c1O ... Yes
N#Cc1nc(C(=O)NCCC(=O)O)c(O)c2ccc(Oc3ccccc3)cc12 ... No
O=C(NC[C@H](O)C(=O)O)c1ncc2cc(Oc3ccccc3)ccc2c1O ... Yes

Q: Reported PHD2/PHD1 reaches at least 10 for `CC(C)(CC(=O)O)NC(=O)c1ncc2cc(Oc3ccccc3)ccc2c1O` ?
Result: Yes

Q: Textbook exercise: given the entry O=C(O)CNC(=O)c1ncc2cc(Oc3cccnc3)ccc2c1O [U.S. Pat. No. 7,323,475; Example D-67, reference compound] , state whether its PHD2/PHD1 is greater than or equal to 10.
Result: No

Q: Given the entry O=C(O)CNC(=O)c1ncc2cc(Oc3ccccc3)ccc2c1O [U.S. Pat. No. 7,323,475; Example D-7, reference compound] , answer whether its PHD2/PHD1 meets or surpasses 10.
Result: No
